# Procedure Details: PSAC antagonists in infected red cells, primary screen, cell-based, P. falciparum Indochina, OD700, 2 h (AID 1155);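 note: lysis reports solute entry through the parasite surface anion channel PSAC; channel blockers reduce lysis of infected cells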
# Test Parameters: P. falciparum Indochina infected erythrocytes, osmotic lysis OD700; higher = more signal, called active from +8 up or from −8 down
Class class 1: z-score at least 0.4. Class class 0: z-score below 0.4.

Consider the following illustrative entries.
CCCCC(CC)C(O)C1C=CC2C(=O)N(Cc3ccccc3)C(=O)C2N1n1cnnc1 (stereo not drawn) :: class 0
Cc1ccc(S[C@]2(C(=O)O)CC(=O)N(C(C)C)[C@@H]2c2ccc(CO)cc2I)cc1 :: class 1
COc1ccc(CCNC(=O)[C@@]2(Sc3ccc(C)cc3)CC(=O)N(C(C)C)[C@@H]2c2ccc(CO)cc2I)cc1 :: class 1

In plain terms: is recorded z-score at least 0.4 for CN1C(=O)C2C=CC(C(O)C3CC=CCC3)N(N(c3ccccc3)c3ccccc3)C2C1=O (stereo not drawn) ? class 1

Decide: z-score of `CCC[C@@H]1C[C@@]1(CCC)[C@@H](NS(=O)(=O)c1cccc2cccnc12)c1ccc(Cl)cc1` >= 0.4? class 1

I'd appreciate it if you could say whether `COc1cc2c(cc1OC)CN(C(=O)[C@@H]1[C@H]3C(=O)O[C@H](c4ccccc4)[C@H](c4ccccc4)N3[C@H](c3ccccc3OCCO)[C@@]13C(=O)Nc1ccc(C#CCCO)cc13)CC2` has z-score at least equal to 0.4. class 1

Determine whether this molecule has z-score no lower than 0.4: `C[N+](C)(C)CCCCNC(=O)[C@@H]1C[C@@H]2C(=O)N[C@@H](Cc3ccccc3)C(=O)N2[C@@H]1c1cccc(OCCO)c1` class 1

Please indicate if the recorded z-score for `CO[C@H]1O[C@H](CO)[C@@H](OC(=O)Nc2ccc(Oc3ccccc3)cc2)[C@H](OC(=O)Nc2ccc3c(c2)OCO3)[C@H]1OC(=O)Nc1ccc2c(c1)OCO2` meets or exceeds 0.4. class 1

Please tell me: is the molecule `O=C(NCCO)C1=C[C@H](Oc2ccccc2I)[C@@H](O)[C@H](N(Cc2ccco2)C(=O)Cc2ccccc2)C1` at or over 0.4 in terms of z-score? class 1

Form field: z-score at least 0.4? Entry: `O=C1C[C@@](C(=O)NC2CC2)(c2ccc([N+](=O)[O-])cc2)[C@@H](c2ccc(CO)cc2I)N1C1CCCCC1` class 1

// inclusive: z-score at least 0.4? input: `Cc1ccc([C@@H]2C[C@@H](Sc3ccccc3)[C@H](C(=O)O)CN2S(=O)(=O)c2ccc(C)cc2)cc1` class 1
